Just for reference, patent US11299460B2 is where these values come from.

# target.under.test: GST-hMDM2 (aa1-188) (Homo sapiens, UniProt Q00987)
# Construct: The amino acid residues 1-188 of human MDM2 were expressed as GST-hMDM2 fusion protein
# Sequence (Q00987 1-188): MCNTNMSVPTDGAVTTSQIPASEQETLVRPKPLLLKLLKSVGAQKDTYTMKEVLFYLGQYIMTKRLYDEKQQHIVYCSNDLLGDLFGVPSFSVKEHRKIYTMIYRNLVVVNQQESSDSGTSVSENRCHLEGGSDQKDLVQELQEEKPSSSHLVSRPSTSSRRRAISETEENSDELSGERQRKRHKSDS
# test.description: Homogeneous time resolved fluorometry (HTRF assay), hMDM2/p53 interaction
# condition.summary: HTRF analysis; GST-hMDM2 (aa1-188) / biotinylated-p53 (aa1-83)
A collection of compounds and their measured IC50

Illustrative cases are given below, each with its answer.
COc1cc(C(=O)O)ccc1NC(=O)C[C@@]1(C)C[C@H](c2cccc(Cl)c2)[C@@H](c2ccc(Cl)cc2)N([C@H](CS(=N)(=O)C(C)C)C(C)C)C1=O (some centres unmarked) = < 0.01 µM
CC(C)[C@@H](CS(=O)(=NC(=O)N(C)C)C(C)C)N1C(=O)[C@@](C)(CC(=O)O)C[C@H](c2cccc(Cl)c2)[C@H]1c1ccc(Cl)cc1 (some centres unmarked) = < 0.01 µM
Cc1c(Br)cccc1NC(=O)C[C@@]1(C)C[C@H](c2cccc(Cl)c2)[C@@H](c2ccc(Cl)cc2)N([C@H](CS(=N)(=O)C(C)C)C(C)C)C1=O (some centres unmarked) = > 0.1 µM
CC(C)[C@@H](CS(=N)(=O)C(C)C)N1C(=O)[C@@](C)(CC(=O)O)C[C@H](c2cccc(Cl)c2)[C@H]1c1ccc(Cl)cc1 (some centres unmarked) [Compound 001] = < 0.01 µM
CC(C)[C@@H](CS(=N)(=O)C(C)C)N1C(=O)[C@@](C)(CC(=O)Nc2cccc(Br)c2)C[C@H](c2cccc(Cl)c2)[C@H]1c1ccc(Cl)cc1 (some centres unmarked) = > 0.1 µM
CC(C)[C@@H](CS(=N)(=O)C(C)C)N1C(=O)[C@@](C)(CC(=O)NS(=O)(=O)c2ccccc2)C[C@H](c2cccc(Cl)c2)[C@H]1c1ccc(Cl)cc1 (some centres unmarked) = 0.01 to 0.1 µM
CC(C)[C@@H](CS(=N)(=O)C(C)C)N1C(=O)[C@@](C)(CC(=O)NS(C)(=O)=O)C[C@H](c2cccc(Cl)c2)[C@H]1c1ccc(Cl)cc1 (some centres unmarked) = 0.01 to 0.1 µM

# evaluate next
IC50 reported for this compound CC(C)[C@@H](CS(=O)(=O)C(C)C)N1C(=O)[C@@](C)(CC(=O)NS(=N)(=O)C2CC2)C[C@H](c2cccc(Cl)c2)[C@H]1c1ccc(Cl)cc1 (some centres unmarked) : 0.01 to 0.1 µM

====

# Tested on: p21 transcripts in SJSA-1 cells
# test.description: p21 assay (QRT-PCR of p21 transcripts in SJSA-1 cells)
# Type: cell-based, human
# condition.summary: Homo sapiens, SJSA-1, 7 h, cell assay (SJSA-1 cell); p21 induction, 7 hours incubation
pIC50: −log10 of the molar value.
quantity: pIC50

Illustrative cases are given below, each with its answer.
COc1cc(NC(=O)C[C@@]2(C)C[C@H](c3cccc(Cl)c3)[C@@H](c3ccc(Cl)cc3)N([C@H](CS(=O)(=NC(=O)N3CCCC3)C(C)C)C(C)C)C2=O)ccc1C(=O)O (some centres unmarked) = > 6.00
COc1cc(C(=O)O)ccc1NC(=O)C[C@@]1(C)C[C@H](c2cccc(Cl)c2)[C@@H](c2ccc(Cl)cc2)N([C@H](C[S@](=O)(=NC(C)=O)C(C)C)C(C)C)C1=O = > 6.00
CC(C)[C@@H](CS(=N)(=O)C(C)C)N1C(=O)[C@@](C)(CC(=O)NS(=O)(=O)C2(C)CC2)C[C@H](c2cccc(Cl)c2)[C@H]1c1ccc(Cl)cc1 (some centres unmarked) = 5.00 to 6.00
Cc1c(Br)cccc1NC(=O)C[C@@]1(C)C[C@H](c2cccc(Cl)c2)[C@@H](c2ccc(Cl)cc2)N([C@H](CS(=N)(=O)C(C)C)C(C)C)C1=O (some centres unmarked) = 5.00 to 6.00

# evaluate next
Bench note, p21 transcripts in SJSA-1 cells: C=CC(=O)N=[S@@](=O)(C[C@H](C(C)C)N1C(=O)[C@@](C)(CC(=O)O)C[C@H](c2cccc(Cl)c2)[C@H]1c1ccc(Cl)cc1)C(C)C , pIC50 reads > 6.00

====

# System: p21 transcripts in SJSA-1 cells
# test.description: p21 assay (QRT-PCR of p21 transcripts in SJSA-1 cells)
# Format: cell-based, human
# condition.summary: Homo sapiens, SJSA-1, 7 h, cell assay (SJSA-1 cell); p21 induction, 7 hours incubation
A collection of compounds and their measured IC50

Illustrative cases are given below, each with its answer.
COc1cc(NC(=O)C[C@@]2(C)C[C@H](c3cccc(Cl)c3)[C@@H](c3ccc(Cl)cc3)N([C@H](C[S@](=O)(=NC(C)=O)C(C)C)C(C)C)C2=O)ccc1C(=O)O = < 1000 nM
COc1cc(C(=O)O)ccc1NC(=O)C[C@@]1(C)C[C@H](c2cccc(Cl)c2)[C@@H](c2ccc(Cl)cc2)N([C@H](C[S@](=O)(=NC(N)=O)C(C)C)C(C)C)C1=O = < 1000 nM
CCN=S(=O)(C[C@H](C(C)C)N1C(=O)[C@@](C)(CC(=O)O)C[C@H](c2cccc(Cl)c2)[C@H]1c1ccc(Cl)cc1)C(C)C (stereo partly drawn) = < 1000 nM
CC(C)[C@@H](CS(=O)(=NC(=O)N(C)C)C(C)C)N1C(=O)[C@@](C)(CC(=O)O)C[C@H](c2cccc(Cl)c2)[C@H]1c1ccc(Cl)cc1 (stereo partly drawn) = < 1000 nM
CC(C)[C@@H](CS(=N)(=O)C(C)C)N1C(=O)[C@@](C)(CC(=O)NS(=O)(=O)c2ccc(C#N)cc2)C[C@H](c2cccc(Cl)c2)[C@H]1c1ccc(Cl)cc1 (stereo partly drawn) = 1000 to 10000 nM

IC50 reported for this compound COc1cc(NC(=O)C[C@@]2(C)C[C@H](c3cccc(Cl)c3)[C@@H](c3ccc(Cl)cc3)N([C@H](CS(=N)(=O)C(C)C)C(C)C)C2=O)ccc1C(=O)O (stereo partly drawn) : < 1000 nM

IC50 reported for this compound CC(C)[C@@H](CS(=O)(=O)C(C)C)N1C(=O)[C@@](C)(CC(=O)NS(=N)(=O)C2(C)CC2)C[C@H](c2cccc(Cl)c2)[C@H]1c1ccc(Cl)cc1 (stereo partly drawn) [Compound 028A] : < 1000 nM

IC50 reported for this compound CC(C)[C@@H](CS(=N)(=O)C(C)C)N1C(=O)[C@@](C)(CC(=O)Nc2cccc(Br)c2)C[C@H](c2cccc(Cl)c2)[C@H]1c1ccc(Cl)cc1 (stereo partly drawn) : 1000 to 10000 nM

====

# System: p21 transcripts in SJSA-1 cells
# test.description: p21 assay (QRT-PCR of p21 transcripts in SJSA-1 cells)
# Type: cell-based, human
# condition.summary: Homo sapiens, SJSA-1, 7 h, cell assay (SJSA-1 cell); p21 induction, 7 hours incubation
quantity: IC50

Illustrative cases are given below, each with its answer.
CC(C)[C@@H](CS(=O)(=NC#N)C(C)C)N1C(=O)[C@@](C)(CC(=O)O)C[C@H](c2cccc(Cl)c2)[C@H]1c1ccc(Cl)cc1 (single isomer, unassigned) [Compound 006] = < 1000 nM
Cc1ccc(S(=O)(=O)NC(=O)C[C@@]2(C)C[C@H](c3cccc(Cl)c3)[C@@H](c3ccc(Cl)cc3)N([C@H](CS(=N)(=O)C(C)C)C(C)C)C2=O)cc1 (stereo partly shown) [Compound 021] = 1000 to 10000 nM

IC50 reported for this molecule CC(C)[C@@H](CS(=O)(=NC(=O)N1CCOCC1)C(C)C)N1C(=O)[C@@](C)(CC(=O)O)C[C@H](c2cccc(Cl)c2)[C@H]1c1ccc(Cl)cc1 (stereo partly shown) [Compound 046] : < 1000 nM

IC50 reported for this molecule CCOC(=O)N=S(=O)(C[C@H](C(C)C)N1C(=O)[C@@](C)(CC(=O)Nc2ccc(C(=O)O)c(OC)c2)C[C@H](c2cccc(Cl)c2)[C@H]1c1ccc(Cl)cc1)C(C)C (stereo partly shown) [Compound 052] : < 1000 nM
